Data credit: patent US7427625B2

- Tgt: Lyn kinase (Homo sapiens)
- Construct: purchased Upstate Biotechnology, Lake Placid, N.Y
- Sequence (P07948 whole entry): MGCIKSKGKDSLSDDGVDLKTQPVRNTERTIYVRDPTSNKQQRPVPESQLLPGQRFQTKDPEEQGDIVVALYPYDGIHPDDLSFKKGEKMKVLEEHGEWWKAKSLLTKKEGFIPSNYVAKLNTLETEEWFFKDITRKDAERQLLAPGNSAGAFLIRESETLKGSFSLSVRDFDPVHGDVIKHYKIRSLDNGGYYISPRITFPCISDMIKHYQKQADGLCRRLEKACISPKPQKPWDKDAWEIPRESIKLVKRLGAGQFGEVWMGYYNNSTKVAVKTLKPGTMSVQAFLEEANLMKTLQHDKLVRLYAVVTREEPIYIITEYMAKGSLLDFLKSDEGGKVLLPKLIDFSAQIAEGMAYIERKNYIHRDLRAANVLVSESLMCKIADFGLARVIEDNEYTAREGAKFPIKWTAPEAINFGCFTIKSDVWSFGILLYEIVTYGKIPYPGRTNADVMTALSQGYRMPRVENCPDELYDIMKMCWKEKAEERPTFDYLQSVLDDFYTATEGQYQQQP
- Experiment: Lyn Kinase Assay
- Format: biochemical
- Experimental Conditions: test concentration of 2 μM; read-out: Lyn percent inhibition
Threshold rule: inhibition at 2 µM greater than or equal to 80% is condition met; below that, condition not met.

1. N#Cc1cnc2sc(C(=O)Nc3ccc(CCN4CCOCC4)cc3)c3c2c1N(c1c(Cl)ccc2c1OCO2)C(=O)N3 [Cpd 13] | condition not met
2. COC1CCN(Cc2ccc(NC(=O)c3sc4ncc(C#N)c5c4c3NC(=O)N5c3c(Cl)ccc4c3OCO4)cc2)CC1 [Cpd 18] | condition met
3. CCOC(=O)c1sc2nc(N3CCOCC3)c(C#N)c3c2c1NC(=O)N3c1c(Cl)ccc2c1OCO2 [Cpd 7] | condition not met
4. N#Cc1c(N2CCOCC2)nc2sc(C(=O)Nc3ccc(CN4CCOCC4)cc3)c3c2c1N(c1c(Cl)ccc2c1OCO2)C(=O)N3 [Cpd 8] | condition not met
5. COc1cc(N2C(=O)Nc3c(C(=O)Nc4ccc(CCN5CCOCC5)cc4)sc4ncc(C#N)c2c34)c(Cl)cc1Cl [Cpd 6] | condition not met
6. COc1cc(N2C(=O)Nc3c(C(=O)Nc4ccc(CN5CCOCC5)cc4)sc4ncc(C#N)c2c34)c(Cl)cc1Cl [Cpd 5] | condition met
7. Cc1nc2sc(C(=O)Nc3ccc(CN4CCOCC4)cc3)c3c2c(c1C#N)N(c1c(Cl)ccc2c1OCO2)C(=O)N3 [Cpd 9] | condition not met
8. CN1CCN(CCc2ccc(NC(=O)c3sc4ncc(C#N)c5c4c3NC(=O)N5c3c(Cl)ccc4c3OCO4)cc2)CC1 [Cpd 12] | condition met
